Observed pIC50 for Acetylcholinesterase from electric eel (Electrophorus electricus, UniProt O42275), reported per entry below.
Here pIC50 is given on a logarithmic scale as minus log10 of the concentration in mol/L.

CNCc1cc(=O)oc2cc(OCc3cccc(F)c3)ccc12 [compound 9] ... 5.57
O=c1cc(CN2CCOCC2)c2ccc(OCc3cccc(Cl)c3)cc2o1 [compound 17] ... 5.18

API: the following record is the query input.
Query block: Give the reported pIC50 for CN1CCN(Cc2cc(=O)oc3cc(OCc4cccc(Cl)c4)ccc23)CC1 [compound 16] (system: Acetylcholinesterase from electric eel (Electrophorus electricus, UniProt O42275)).
Sequence (O42275 24-633): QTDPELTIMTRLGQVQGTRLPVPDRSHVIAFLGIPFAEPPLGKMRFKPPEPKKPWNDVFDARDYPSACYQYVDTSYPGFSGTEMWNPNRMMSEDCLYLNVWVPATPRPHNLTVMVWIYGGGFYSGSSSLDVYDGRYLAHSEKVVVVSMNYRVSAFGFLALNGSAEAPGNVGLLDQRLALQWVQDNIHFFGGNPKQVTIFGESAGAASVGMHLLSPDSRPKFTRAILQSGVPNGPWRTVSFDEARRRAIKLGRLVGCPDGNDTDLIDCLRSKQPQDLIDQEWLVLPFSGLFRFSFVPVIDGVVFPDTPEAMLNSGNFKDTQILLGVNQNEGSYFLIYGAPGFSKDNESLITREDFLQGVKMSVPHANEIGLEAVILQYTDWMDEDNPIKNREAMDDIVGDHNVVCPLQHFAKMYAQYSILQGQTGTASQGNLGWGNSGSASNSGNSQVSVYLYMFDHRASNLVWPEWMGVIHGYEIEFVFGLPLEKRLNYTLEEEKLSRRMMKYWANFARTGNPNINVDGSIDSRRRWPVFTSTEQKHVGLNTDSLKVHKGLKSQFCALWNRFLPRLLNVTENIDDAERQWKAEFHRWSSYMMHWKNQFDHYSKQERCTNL
Result block: 5.51
